These entries and their values trace back to paper PMC10305617.

tested on: COLO 205; experiment: MTS cell viability (cytotoxic activity) assay, COLO 205; type: cell-based, Human; details: Homo sapiens; COLO 205, MTS, 72 h; mean ± SD, at least three experiments
value_type: IC50

Reference set, count: 2
compound	tested_on	value_observed
CC1=CC[C@@H]2C(C)(C)[C@@H](O)CC[C@@]2(C)[C@@H]1COc1ccc2ccc(=O)oc2c1	COLO 205	11.2 µM
COc1cccc2c1C(=O)c1c(O)c3c(c(O)c1C2=O)C[C@@](O)(C(=O)CO)C[C@@H]3O[C@H]1C[C@H](N)[C@H](O)[C@H](C)O1 [Doxorubicin, reference compound]	COLO 205	0.08 µM

Then this compound:
I would be grateful if you could share the reported IC50 for C=C1CC[C@@H]2C(C)(C)C(=O)CC[C@@]2(C)[C@@H]1COc1ccc2ccc(=O)oc2c1 .
> 200 µM

###

test system: HUVEC; assay: MTS cell viability (cytotoxic activity) assay, non-cancerous HUVEC; type: cell-based, Human; details: 72 h, mean ± SD, at least three experiments
value_type: IC50 (µM)
Report the figure in µM without appending any unit label.

I would be grateful if you could share the reported IC50 for N.N.[Cl][Pt][Cl] [Cisplatin, reference compound] .
40.7

###

test system: K-562; test: MTS cell viability (cytotoxic activity) assay, K-562; format: cell-based, Human; conditions: Homo sapiens, K562; K-562, MTS, 72 h; mean ± SD, at least three experiments
value_type: IC50 (µM)
Report the figure in µM without appending any unit label.

> print(dat)
                                        smi  readout.units  value.observed
1  CC1=CC[C@@H]2C(C)(C)[C@@H](O)CC[C@@]2(C)[C@@H]1COc1ccc2ccc(=O)oc2c1             µM            35.2

I would be grateful if you could share the reported IC50 for CC1=CC[C@@H]2C(C)(C)C(=O)CC[C@@]2(C)[C@@H]1COc1ccc2ccc(=O)oc2c1 .
55.5

###

system: K-562; assay: MTS cell viability (cytotoxic activity) assay, K-562; type: cell-based, Human; conditions: Homo sapiens, K562; K-562, MTS, 72 h; mean ± SD, at least three experiments
IC50 for assorted molecules

Reference set, count: 2
> print(dat)
                                        smi  value.observed
1  CC1(C)C(=O)CC[C@]2(C)[C@@H]1CC[C@](C)(O)[C@H]2COc1ccc2ccc(=O)oc2c1        > 200 µM
2  C=C1CC[C@@H]2C(C)(C)C(=O)CC[C@@]2(C)[C@@H]1COc1ccc2ccc(=O)oc2c1        > 200 µM

I would be grateful if you could share the reported IC50 for CC1(C)[C@H](O)CC[C@]2(C)[C@@H]1CC[C@@](C)(O)[C@@H]2COc1ccc2ccc(=O)oc2c1 .
> 200 µM
